- Subject of test: UCHL3 (Homo sapiens)
- Construct: (1-230); made in house
- Sequence (P15374 whole entry): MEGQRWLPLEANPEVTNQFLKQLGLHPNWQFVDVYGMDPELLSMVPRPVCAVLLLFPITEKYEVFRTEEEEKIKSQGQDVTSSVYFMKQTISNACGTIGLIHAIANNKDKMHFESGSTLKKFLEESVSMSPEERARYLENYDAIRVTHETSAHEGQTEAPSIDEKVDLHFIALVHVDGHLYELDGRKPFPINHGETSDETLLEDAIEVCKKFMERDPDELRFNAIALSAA
- Test name: High-throughput screening, Ub-RhoMP, single dose 1.25 µM
- Format: biochemical
- Experimental context: individual amine building block (plate NCN-5); read-out: BB %inhibition UCHL3
Observed property: inhibition at 1.25 µM (%)

Compound: N#CN1CC[C@H](N)C1
inhibition at 1.25 µM [%]: 0.6
--
Compound: N#CN1C[C@@H](F)[C@@H](N)C1
inhibition at 1.25 µM [%]: 1.4
--
Compound: N#CN1CCC(N)CC1
inhibition at 1.25 µM [%]: 3.9
--
Compound: N#CN1C[C@H](N)[C@@H](O)C1
inhibition at 1.25 µM [%]: 8
--
Compound: N#CN1CC[C@H](CN)C1
inhibition at 1.25 µM [%]: -5.7

(a) N#CN1CCC[C@H](N)C1
(b) N#CN1CC(N)C1
(c) N#CN1C[C@H]2C[C@@H](N)C[C@H]2C1
Please list these in order of increasing inhibition at 1.25 µM. Thank you! // respond by listing labels in the order requested
c, a, b

(A) N#CN1CC[C@@H](N)C1
(B) N#CN1C[C@H]2C[C@H](N)C[C@H]2C1
(C) N#CN1CCC(n2cc(N)cn2)CC1
Please list these in order of increasing inhibition at 1.25 µM. Thank you! // respond by listing labels in the order requested
B, C, A
(B: -7.4%, C: 2.3%, A: 5.9%)

(A) N#CN1CC[C@@H](NC(=O)c2ccc(CN)cc2)C1
(B) N#CN1CCC[C@@H](N)C1
Please tell me which of the two, A or B , has the higher reported inhibition at 1.25 µM value. # reply format: chosen label
B
(B: 2%, A: -2.3%)

----------
- Subject of test: mUSP18 (Mus musculus)
- Construct: (46-368); His-tag (N); made in house
- Test name: High-throughput screening, ISG15ct-RhoMP, single dose 1.25 µM
- Assay type: biochemical, murine
- Experimental context: mUSP18 %inhibition; carboxylic acid (CA) building block alone; read-out: %inh CA only
Observed property: inhibition at 1.25 µM (%)

These solved cases illustrate the format of a correct answer.
Compound: O=C(O)c1cn(CC2CCOC2)nn1 (stereo not drawn) [CA318]
Subject of test: mUSP18 (Mus musculus)
Test result: -2.05
--
Compound: CC(C)c1nc(Cn2cc(C(=O)O)ccc2=O)cs1 [CA233]
Subject of test: mUSP18 (Mus musculus)
Test result: 1.25
--
Compound: O=C(O)c1cnn(CCN2CCCC2)c1 [CA221]
Subject of test: mUSP18 (Mus musculus)
Test result: 5.71
--
Compound: O=C(O)Cc1cnn(Cc2ccccc2)c1 [CA385]
Subject of test: mUSP18 (Mus musculus)
Test result: -2.43
--
Compound: O=C(O)c1ccc(C#Cc2ccccc2)cc1 [CA401]
Subject of test: mUSP18 (Mus musculus)
Test result: 8.14

(a) COC1CC(C(=O)O)N(C(=O)OCc2ccccc2)C1 (stereo not drawn) [CA464]
(b) Cc1onc(C(=O)O)c1CN1CCOCC1 [CA364]
(c) O=C(O)c1cc(C2CC2)no1 [CA349]
Task field, ranking: reported inhibition at 1.25 µM, descending order. // respond by listing labels in the order requested
b, a, c

----------
- Subject of test: mUSP18 (Mus musculus, UniProt Q9WTV6)
- Construct: (46-368); His-tag (N); made in house
- Sequence (Q9WTV6 46-368): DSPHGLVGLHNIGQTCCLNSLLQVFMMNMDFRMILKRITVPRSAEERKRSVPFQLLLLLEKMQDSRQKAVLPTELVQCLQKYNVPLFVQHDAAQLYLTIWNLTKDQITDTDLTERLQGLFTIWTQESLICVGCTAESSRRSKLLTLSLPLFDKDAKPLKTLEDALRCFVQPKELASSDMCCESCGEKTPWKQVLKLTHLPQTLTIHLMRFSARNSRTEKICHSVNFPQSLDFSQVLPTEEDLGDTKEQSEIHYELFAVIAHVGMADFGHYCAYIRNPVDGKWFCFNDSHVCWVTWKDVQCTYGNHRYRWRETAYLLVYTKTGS
- Test name: High-throughput screening, ISG15ct-RhoMP, single dose 1.25 µM
- Format: biochemical, murine
- Experimental context: individual amine building block (plate NCN-5); read-out: BB %inhibition mUSP18
Observed property: inhibition at 1.25 µM (%)

Compound: N#CN1CCC(n2cc(N)cn2)CC1
Test result: -4.3
//
Compound: N#CN1C[C@H]2C[C@H](N)C[C@H]2C1
Test result: -3.9
//
Compound: N#CN1CC[C@H](N)C1
Test result: 3.1
//
Compound: N#CN1CC(N)C1
Test result: -0.216
//
Compound: N#CN1CCC[C@@H](N)C1
Test result: 3.9

(I) N#CN1C[C@H]2C[C@@H](N)C[C@H]2C1
(II) N#CN1CC[C@H](CN)C1
I'm curious whether I or II has the smaller inhibition at 1.25 µM number. Which is it? # reply format: chosen label
II

(a) N#CN1CC[C@@H](N)C1
(b) N#CN1CCC[C@H](N)C1
(c) N#CN1C[C@H](N)[C@@H](O)C1
(d) N#CN1C[C@@H](F)[C@@H](N)C1
Please list these in order of increasing inhibition at 1.25 µM. Thank you! // respond by listing labels in the order requested
d, b, c, a
(d: -5.8%, b: -1.5%, c: -0.9%, a: 6.8%)

(P) N#CN1CCC(N)CC1
(Q) N#CN1CC[C@@H](NC(=O)c2ccc(CN)cc2)C1
I'm curious whether P or Q has the smaller inhibition at 1.25 µM number. Which is it? # reply format: chosen label
Q
(Q: 2%, P: 4.3%)

----------
- Subject of test: mUSP18 (Mus musculus, UniProt Q9WTV6)
- Construct: (46-368); His-tag (N); made in house
- Test name: High-throughput screening, ISG15ct-RhoMP, single dose 1.25 µM
- Assay type: biochemical, murine
- Experimental context: mUSP18 %inhibition; carboxylic acid (CA) building block alone; read-out: %inh CA only
Observed property: inhibition at 1.25 µM (%)

Compound: CN1CCN(c2ccccc2C(=O)O)CC1
inhibition at 1.25 µM, %: 13.5

(A) O=C(O)c1cc(N2CCOCC2)ccn1
(B) O=C(O)c1nc(C2CC2)ncc1Br
(C) O=C(O)c1cccn1-c1c(Cl)cccc1Cl
Please list these in order of increasing inhibition at 1.25 µM. Thank you! // respond by listing labels in the order requested
C, A, B

(A) Cn1ncc(C(=O)O)c1-n1cccc1
(B) CC1CN(c2ccc(C(=O)O)cn2)CC(C)O1 (centres unmarked)
I'm curious whether A or B has the smaller inhibition at 1.25 µM number. Which is it? # reply format: chosen label
B
(B: -4.1%, A: 18.6%)

(a) CC1=NN(c2ccc(C(=O)O)cc2)CC1
(b) O=C(O)c1cc(-c2ccc(Cl)s2)[nH]n1
I'm curious whether a or b has the smaller inhibition at 1.25 µM number. Which is it? # reply format: chosen label
a

----------
- Subject of test: mUSP18 (Mus musculus)
- Construct: (46-368); His-tag (N); made in house
- Sequence (Q9WTV6 46-368): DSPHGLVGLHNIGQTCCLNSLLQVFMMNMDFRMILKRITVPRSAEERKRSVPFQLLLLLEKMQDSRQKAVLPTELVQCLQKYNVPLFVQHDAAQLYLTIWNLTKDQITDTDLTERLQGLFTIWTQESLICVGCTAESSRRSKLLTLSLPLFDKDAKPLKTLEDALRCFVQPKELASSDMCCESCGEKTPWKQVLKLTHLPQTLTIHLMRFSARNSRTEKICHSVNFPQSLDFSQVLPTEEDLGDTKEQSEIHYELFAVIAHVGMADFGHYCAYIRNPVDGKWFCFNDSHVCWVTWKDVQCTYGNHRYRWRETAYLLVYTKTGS
- Test name: High-throughput screening, ISG15ct-RhoMP, single dose 1.25 µM
- Format: biochemical, murine
- Experimental context: mUSP18 %inhibition; carboxylic acid (CA) with coupling reagents DIC/HOBT; read-out: %inh CA + DIC/HOBT
Observed property: inhibition at 1.25 µM (%)

Compound: O=C(O)C1CCOC2(CCC2)C1 (stereo not shown)
Unit spec: %
inhibition at 1.25 µM: -0.86
--
Compound: O=C(O)Cc1csc(NS(=O)(=O)c2ccccc2)n1
Unit spec: %
inhibition at 1.25 µM: -0.58

(1) O=C(O)c1ncoc1C1CC1
(2) Cc1csc(-c2cccc(C(=O)O)c2)n1
(3) COc1ccc(C(=O)O)cc1S(=O)(=O)NCCc1ccccn1
(4) O=C(O)c1cnc(COc2ccccc2)s1
Please list these in order of increasing inhibition at 1.25 µM. Thank you! // respond by listing labels in the order requested
2, 3, 4, 1

(P) O=C(O)c1cccc(S(=O)(=O)Nc2ccc(Cl)cc2)c1
(Q) COc1ccc(C(=O)O)cc1S(=O)(=O)NCc1ccccn1
I'm curious whether P or Q has the smaller inhibition at 1.25 µM number. Which is it? # reply format: chosen label
Q

(a) Cc1nc(-c2cc(C)n(CCC(=O)O)c2C)cs1
(b) Cc1noc(C)c1S(=O)(=O)N1CCCC1C(=O)O (stereo not shown)
(c) Cc1ccc(Oc2ccc(C(=O)O)nc2)cc1
(d) O=C(O)c1cc(N2CCOCC2)ccn1
Task field, ranking: reported inhibition at 1.25 µM, descending order. // respond by listing labels in the order requested
a, c, b, d

(A) Cc1nc(COc2ccccc2C(=O)O)no1
(B) O=C(O)c1ccc(N2CCCS2(=O)=O)cc1
(C) CN1CCN(C(=O)C2CC=CCC2C(=O)O)CC1 (stereo not shown)
Please list these in order of increasing inhibition at 1.25 µM. Thank you! // respond by listing labels in the order requested
A, B, C
(A: -3.65%, B: -1.03%, C: 16.4%)

Ref: paper PMC12668310
